target: TNFα / p55 TNFα receptor (CD120a) (Homo sapiens, UniProt P01375); test: Binding ELISA: TNF-α binding to plastic coated TNF-R1; settings: 10^−5 M
Sequence (P01375 77-233 limits assumed): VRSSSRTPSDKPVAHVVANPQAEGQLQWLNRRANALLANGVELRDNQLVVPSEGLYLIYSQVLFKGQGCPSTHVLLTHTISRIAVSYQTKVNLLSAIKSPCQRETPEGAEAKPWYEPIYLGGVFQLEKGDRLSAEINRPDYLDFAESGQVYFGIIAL
Each entry below carries its reported inhibition at 10 µM.
readoutName: inhibition at 10 µM (%)

1. NCCc1ccc(Nc2nc(NCCNc3nc(Nc4ccccc4)nc(Nc4ccc(CCN)cc4)n3)nc(Nc3ccccc3)n2)cc1 ... -47.4
2. CN(C)CCCC(=O)Oc1ccc(CCNc2nc(NCCNc3nc(NCCc4ccc(OC(=O)CCCN(C)C)cc4)nc(Nc4ccccc4)n3)nc(Nc3ccccc3)n2)cc1 ... -35.7
3. Cc1ccccc1Nc1nc(NCCNc2nc(NCCc3ccc(O)cc3)nc(Nc3ccccc3C)n2)nc(NCCc2ccc(O)cc2)n1 ... 4.6

====

target: TNFα / p55 TNFα receptor (CD120a) (Homo sapiens); test: Binding ELISA: sTNF-R1 binding to plastic coated TNF-α; details: 10^−5 M
readoutName: inhibition at 10 µM

1. Oc1ccc(CCNc2nc(NCCCNc3nc(NCCc4ccc(O)cc4)nc(Nc4ccccc4)n3)nc(Nc3ccccc3)n2)cc1 ... 6.74%
2. Oc1ccc(CCNc2nc(NCCNc3nc(NCCc4ccc(O)cc4)nc(Nc4ccccc4)n3)nc(Nc3ccccc3)n2)cc1 ... 0%
3. Cc1ccccc1Nc1nc(NCCNc2nc(NCCc3ccc(O)cc3)nc(Nc3ccccc3C)n2)nc(NCCc2ccc(O)cc2)n1 ... 2.95%
4. NCCc1ccc(Nc2nc(NCCNc3nc(Nc4ccccc4)nc(Nc4ccc(CCN)cc4)n3)nc(Nc3ccccc3)n2)cc1 ... 4.5%

====

target: Fc portion of human IgG (binding of protein A to human IgG); construct: fused on or other part: Horseradish peroxidase chemically conjugated to the IgG (HRP-IgG); assay: Competitive protein A binding ELISA; settings: Table 1; PBS-20% DMSO; read-out: IC50 (μM): Assay in PBS-20% DMSO
Each entry below carries its reported IC50.
readoutName: IC50 (µM)

1. CN(C)CCCC(=O)Oc1ccc(CCNc2nc(NCCNc3nc(NCCc4ccc(OC(=O)CCCN(C)C)cc4)nc(Nc4ccccc4)n3)nc(Nc3ccccc3)n2)cc1 ... 39
2. Nc1ccc(CCNc2nc(NCCCCCCNc3nc(NCCc4ccc(N)cc4)nc(Nc4cccc(N)c4)n3)nc(Nc3cccc(N)c3)n2)cc1 ... 0.12
3. Nc1cccc(Nc2nc(NCCO)nc(N3CCN(c4nc(Nc5cccc(N)c5)nc(Nc5cccc(N)c5)n4)CC3)n2)c1 ... 0.04

====

molecular target: Fc portion of human IgG (binding of protein A to human IgG); construct: fused on or other part: Horseradish peroxidase chemically conjugated to the IgG (HRP-IgG); assay: Competitive protein A binding ELISA; settings: Table 1; PBS-20% DMSO; read-out: IC50 (μM): Assay in PBS-20% DMSO
Each entry below carries its reported log10 IC50.
readoutName: log10 IC50 (log10 of the value in µM)

1) Nc1cccc(CNc2nc(Nc3ccc(CNc4nc(N)nc(Nc5cccc(N)c5)n4)cc3)nc(Nc3cccc(N)c3)n2)c1 ... -1.10
2) Nc1ccc(CCNc2nc(NCC3CCN(c4nc(NCCc5ccc(N)cc5)nc(Nc5cccc(N)c5)n4)CC3)nc(Nc3cccc(N)c3)n2)cc1 ... -1.52
3) NCCCCNc1nc(NCCc2ccc(Nc3nc(NCCc4ccc(O)cc4)nc(Nc4ccccc4)n3)cc2)nc(Nc2ccccc2)n1 ... 1.74
4) OCCNc1nc(NCCc2ccc(Nc3nc(NCCc4ccc(O)cc4)nc(Nc4ccccc4)n3)cc2)nc(Nc2ccccc2)n1 ... 1.41
5) NCCNc1nc(NCCc2ccc(Oc3nc(NCCc4ccc(O)cc4)nc(Nc4ccccc4)n3)cc2)nc(Nc2ccccc2)n1 ... 1.85
6) Nc1ccc(CCNc2nc(NCC3CCN(c4nc(NCCc5ccc(N)cc5)nc(Nc5ccccc5)n4)CC3)nc(Nc3ccccc3)n2)cc1 ... 0.30

====

Each entry below carries its reported inhibition at 20 µM.
Tested on: TNFα-induced apoptosis, WEHI-13VAR cells
Test: TNFα induced apoptosis in WEHI-13VAR cells (MTT)
Type: cell-based, murine
Conditions: Mus musculus; 2 × 10^−5M
Protocol: Effect of compounds on TNFα-induced apoptosis was measured by a standard biological assay using WEHI-13VAR cells. […] Only viable cells metabolize MTT to form formazan salt, which is detectable by the measurement of absorbance at 570 nm. […] Optical density was read on a EL 800, universal Microplate reader (Bio-Tek). […]
readoutName: inhibition at 20 µM (%)

1) COC(=O)c1ccccc1Nc1nc(NCCNc2nc(NCCc3ccc(O)cc3)nc(Nc3ccccc3C(=O)OC)n2)nc(NCCc2ccc(O)cc2)n1 ... 48.4
2) Nc1cccc(CNc2nc(Nc3ccc(CNc4nc(N)nc(Nc5cccc(N)c5)n4)cc3)nc(Nc3cccc(N)c3)n2)c1 ... 4.1
3) CN(C)CCCC(=O)Oc1ccc(CCNc2nc(NCCNc3nc(NCCc4ccc(OC(=O)CCCN(C)C)cc4)nc(Nc4ccccc4)n3)nc(Nc3ccccc3)n2)cc1 ... -28.4

====

Each entry below carries its reported IC50.
Target: Fc portion of human IgG (binding of protein A to human IgG)
Construct: fused on or other part: Horseradish peroxidase chemically conjugated to the IgG (HRP-IgG)
Assay: Competitive protein A binding ELISA
Settings: Table 1; PBS-20% DMSO; read-out: IC50 (μM): Assay in PBS-20% DMSO
Protocol: As described above, this assay evaluates the ability of the exemplified compounds to mimic protein A. Such compounds can bind to the Fc portion of human IgG as ascertained by the inhibition of binding of protein A to human IgG. […] Bound HRP-IgG was detected by incubation with 100 μL of 2,2′-Azino-di[3-ethylbenzothiazoline sulfonate]diammonium salt crystals (ABTS) solution for 20 min in the dark at room temperature. The plate was then read at 405 nm on a EL 800, universal Microplate reader (Bio-Tek). […]
readoutName: IC50 (µM)

1. Oc1ccc(CCNc2nc(NCCNc3nc(NCCc4ccc(O)cc4)nc(Sc4ccccc4)n3)nc(Sc3ccccc3)n2)cc1 [Compound 11b] ... 45
2. Cc1ccc(Nc2nc(NCCc3ccc(N)cc3)nc(Nc3ccccc3)n2)cc1CNc1nc(NCCO)nc(Nc2ccccc2)n1 ... 1
3. O=C(O)[C@H](Nc1nc(NCCNc2nc(NCCc3ccc(O)cc3)nc(N[C@@H](C(=O)O)c3ccccc3)n2)nc(NCCc2ccc(O)cc2)n1)c1ccccc1 ... 85
4. Oc1ccc(CCNc2nc(NCc3ccccc3Nc3nc(NCCc4ccc(O)cc4)nc(Nc4ccccc4)n3)nc(Nc3ccccc3)n2)cc1 ... 23
5. COC(=O)[C@H](Cc1ccc(O)cc1)Nc1nc(NCCNc2nc(NCCc3cc4ccccc4[nH]3)nc(N[C@@H](Cc3ccc(O)cc3)C(=O)OC)n2)nc(NCCc2cc3ccccc3[nH]2)n1 ... 28
6. Oc1ccc(CCNc2nc(NCCc3ccc(Nc4nc(Nc5ccccc5)nc(N5CCNCC5)n4)cc3)nc(Nc3ccccc3)n2)cc1 ... 43

====

biological target: Fc portion of human IgG (binding of protein A to human IgG); construct: fused on or other part: Horseradish peroxidase chemically conjugated to the IgG (HRP-IgG); experiment: Competitive protein A binding ELISA; settings: Table 1; PBS; read-out: IC50 (μM): Assay in PBS
Each entry below carries its reported IC50.
readoutName: IC50 (µM)

1. Nc1ccc(CCNc2nc(NCCNc3nc(NCCc4ccc(N)cc4)nc(Nc4cccc(N)c4)n3)nc(Nc3cccc(N)c3)n2)cc1 [Compound 7] ... 0.2
2. Nc1cccc(Nc2nc(NCCO)nc(N3CCN(c4nc(Nc5cccc(N)c5)nc(Nc5cccc(N)c5)n4)CC3)n2)c1 [Compound 44] ... 0.09
3. O=C(O)[C@H](Nc1nc(NCCNc2nc(NCCc3ccc(O)cc3)nc(N[C@@H](C(=O)O)c3ccccc3)n2)nc(NCCc2ccc(O)cc2)n1)c1ccccc1 [Compound 10] ... 69
4. Nc1cccc(Nc2nc(N)nc(Nc3cccc(Nc4nc(N)nc(Nc5cccc(N)c5)n4)c3)n2)c1 [Compound 51] ... 0.6
5. Nc1cccc(Nc2nc(NCCO)nc(Nc3ccc(CNc4nc(Nc5cccc(N)c5)nc(Nc5cccc(N)c5)n4)cc3)n2)c1 [Compound 42] ... 0.05
6. Nc1cccc(Nc2nc(NCCO)nc(Nc3cccc(CNc4nc(Nc5cccc(N)c5)nc(Nc5cccc(N)c5)n4)c3)n2)c1 [Compound 43] ... 0.08
7. Nc1ccc(CCNc2nc(Nc3ccc(CCNc4nc(NCCO)nc(Nc5cccc(N)c5)n4)cc3)nc(Nc3cccc(N)c3)n2)cc1 [Compound 19a] ... 0.06
8. Nc1cccc(Nc2nc(N)nc(NCc3ccc(CNc4nc(N)nc(Nc5cccc(N)c5)n4)cc3)n2)c1 [Compound 41] ... 0.03
9. Nc1cccc(CNc2nc(Nc3ccc(CNc4nc(N)nc(Nc5cccc(N)c5)n4)cc3)nc(Nc3cccc(N)c3)n2)c1 [Compound 45] ... 0.1
10. NCCNc1nc(NCCc2ccc(Oc3nc(NCCc4ccc(O)cc4)nc(Nc4ccccc4)n3)cc2)nc(Nc2ccccc2)n1 [Compound 13] ... 33
11. CN(C)CCCC(=O)Oc1ccc(CCNc2nc(NCCNc3nc(NCCc4ccc(OC(=O)CCCN(C)C)cc4)nc(Nc4ccccc4)n3)nc(Nc3ccccc3)n2)cc1 [Compound 12] ... 23
12. Nc1ccc(CCNc2nc(Nc3ccccc3)nc(N3CCN(c4nc(NCCO)nc(Nc5ccccc5)n4)CC3)n2)cc1 [Compound 33] ... 18
13. Nc1ccc(CCNc2nc(NCC3CCN(c4nc(NCCc5ccc(N)cc5)nc(Nc5cccc(N)c5)n4)CC3)nc(Nc3cccc(N)c3)n2)cc1 [Compound 30] ... 0.4
14. Nc1cccc(Nc2nc(NCCO)nc(Nc3ccc(Nc4nc(NCCO)nc(Nc5cccc(N)c5)n4)cc3)n2)c1 [Compound 47] ... 0.2
15. Nc1cccc(Nc2nc(NCCO)nc(Nc3cccc(Nc4nc(NCCO)nc(Nc5cccc(N)c5)n4)c3)n2)c1 [Compound 49] ... 0.3
16. Oc1ccc(CCNc2nc(NCCc3ccc(Nc4nc(Nc5ccccc5)nc(N5CCNCC5)n4)cc3)nc(Nc3ccccc3)n2)cc1 [Compound 18] ... 26
17. NCCCCNc1nc(NCCc2ccc(Nc3nc(NCCc4ccc(O)cc4)nc(Nc4ccccc4)n3)cc2)nc(Nc2ccccc2)n1 [Compound 16] ... 36
18. Nc1cccc(Nc2nc(Nc3cccc(Nc4nc(Nc5cccc(N)c5)nc(NC(CO)CO)n4)c3)nc(NC(CO)CO)n2)c1 [Compound 50] ... 0.4

Ref: patent US7683061B2
